Catalogue of abundance fitness readings, one per entry.
B1: Storkhead-box protein 2, residues 64 to 141; numbered along this chain, Q9P2F5 (parent)
chain: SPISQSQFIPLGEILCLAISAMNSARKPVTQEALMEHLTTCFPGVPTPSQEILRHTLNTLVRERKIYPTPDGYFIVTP

variants of: B1; assay: abundance fitness (aPCA) (normalised: wild type 0, dead -1); higher = more abundant; growth selection in yeast, the domain comes from the species named; details: Homo sapiens
Note: the reply should be a number with no unit written.

1. F42M : 0.033
2. E36D : -0.012
3. S24Q : 0.026
4. T59Q : -0.031
5. K27T : 0.034

abundance fitness in this record for C16T : -0.027

The measured abundance fitness associated with F8W reads -0.016
